Molecular target: Cyclin-dependent kinase 2/G1/S-specific cyclin-E1 (Homo sapiens)
Test: CDK2/Cyclin E1 Full Length ADP-Glo Kinase Assay
pIC50: −log10 of the molar value.
OBSERVED_PROPERTY: pIC50

Reported pIC50 for CS(=O)(=O)N1CCC(Nc2ncc3cccc(N4CCC(N5CCC5)C4)c3n2)CC1 (stereo unspecified) was > 6.70

----------
Molecular target: Cyclin-dependent kinase/G2/mitotic-specific cyclin- 1 (Homo sapiens, UniProt P06493)
Sequence (P06493 whole entry): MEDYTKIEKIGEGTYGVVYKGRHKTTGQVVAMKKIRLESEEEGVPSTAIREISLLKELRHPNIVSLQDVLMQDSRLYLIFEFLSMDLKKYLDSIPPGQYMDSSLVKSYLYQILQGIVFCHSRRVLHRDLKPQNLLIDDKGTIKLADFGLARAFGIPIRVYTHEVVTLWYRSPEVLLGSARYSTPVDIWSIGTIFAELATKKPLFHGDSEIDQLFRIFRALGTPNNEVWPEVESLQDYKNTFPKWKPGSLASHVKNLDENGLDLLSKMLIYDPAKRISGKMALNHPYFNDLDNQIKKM
Sequence (P14635 whole entry, further chain): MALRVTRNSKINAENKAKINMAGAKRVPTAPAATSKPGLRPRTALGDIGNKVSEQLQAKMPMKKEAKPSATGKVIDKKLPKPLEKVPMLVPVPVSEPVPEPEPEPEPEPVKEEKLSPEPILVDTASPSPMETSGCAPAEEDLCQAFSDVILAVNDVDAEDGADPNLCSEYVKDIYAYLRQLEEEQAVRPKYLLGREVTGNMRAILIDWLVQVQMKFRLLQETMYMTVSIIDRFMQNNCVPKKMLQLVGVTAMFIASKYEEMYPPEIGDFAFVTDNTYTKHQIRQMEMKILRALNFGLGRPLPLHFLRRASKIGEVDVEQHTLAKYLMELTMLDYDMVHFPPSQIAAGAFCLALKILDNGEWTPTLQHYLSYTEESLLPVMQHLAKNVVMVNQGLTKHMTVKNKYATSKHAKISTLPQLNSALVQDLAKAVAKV
Assay: CDK1/Cyclin B1 ADP-Glo Kinase Assay
OBSERVED_PROPERTY: IC50

IC50 of CS(=O)(=O)N1CCC(Nc2ncc3cccc(N4CCC(N5CCC5)C4)c3n2)CC1 (stereo unspecified) [US20240092761, Compound 32] , assay on Cyclin-dependent kinase/G2/mitotic-specific cyclin- 1 (Homo sapiens, UniProt P06493), is > 2 µM
